Each recorded value in this set is attributed to ChEMBL document CHEMBL1201862.

MEASUREMENT_TARGET: UniProt P49327
Sequence (P49327 whole entry, the tested form may be a part): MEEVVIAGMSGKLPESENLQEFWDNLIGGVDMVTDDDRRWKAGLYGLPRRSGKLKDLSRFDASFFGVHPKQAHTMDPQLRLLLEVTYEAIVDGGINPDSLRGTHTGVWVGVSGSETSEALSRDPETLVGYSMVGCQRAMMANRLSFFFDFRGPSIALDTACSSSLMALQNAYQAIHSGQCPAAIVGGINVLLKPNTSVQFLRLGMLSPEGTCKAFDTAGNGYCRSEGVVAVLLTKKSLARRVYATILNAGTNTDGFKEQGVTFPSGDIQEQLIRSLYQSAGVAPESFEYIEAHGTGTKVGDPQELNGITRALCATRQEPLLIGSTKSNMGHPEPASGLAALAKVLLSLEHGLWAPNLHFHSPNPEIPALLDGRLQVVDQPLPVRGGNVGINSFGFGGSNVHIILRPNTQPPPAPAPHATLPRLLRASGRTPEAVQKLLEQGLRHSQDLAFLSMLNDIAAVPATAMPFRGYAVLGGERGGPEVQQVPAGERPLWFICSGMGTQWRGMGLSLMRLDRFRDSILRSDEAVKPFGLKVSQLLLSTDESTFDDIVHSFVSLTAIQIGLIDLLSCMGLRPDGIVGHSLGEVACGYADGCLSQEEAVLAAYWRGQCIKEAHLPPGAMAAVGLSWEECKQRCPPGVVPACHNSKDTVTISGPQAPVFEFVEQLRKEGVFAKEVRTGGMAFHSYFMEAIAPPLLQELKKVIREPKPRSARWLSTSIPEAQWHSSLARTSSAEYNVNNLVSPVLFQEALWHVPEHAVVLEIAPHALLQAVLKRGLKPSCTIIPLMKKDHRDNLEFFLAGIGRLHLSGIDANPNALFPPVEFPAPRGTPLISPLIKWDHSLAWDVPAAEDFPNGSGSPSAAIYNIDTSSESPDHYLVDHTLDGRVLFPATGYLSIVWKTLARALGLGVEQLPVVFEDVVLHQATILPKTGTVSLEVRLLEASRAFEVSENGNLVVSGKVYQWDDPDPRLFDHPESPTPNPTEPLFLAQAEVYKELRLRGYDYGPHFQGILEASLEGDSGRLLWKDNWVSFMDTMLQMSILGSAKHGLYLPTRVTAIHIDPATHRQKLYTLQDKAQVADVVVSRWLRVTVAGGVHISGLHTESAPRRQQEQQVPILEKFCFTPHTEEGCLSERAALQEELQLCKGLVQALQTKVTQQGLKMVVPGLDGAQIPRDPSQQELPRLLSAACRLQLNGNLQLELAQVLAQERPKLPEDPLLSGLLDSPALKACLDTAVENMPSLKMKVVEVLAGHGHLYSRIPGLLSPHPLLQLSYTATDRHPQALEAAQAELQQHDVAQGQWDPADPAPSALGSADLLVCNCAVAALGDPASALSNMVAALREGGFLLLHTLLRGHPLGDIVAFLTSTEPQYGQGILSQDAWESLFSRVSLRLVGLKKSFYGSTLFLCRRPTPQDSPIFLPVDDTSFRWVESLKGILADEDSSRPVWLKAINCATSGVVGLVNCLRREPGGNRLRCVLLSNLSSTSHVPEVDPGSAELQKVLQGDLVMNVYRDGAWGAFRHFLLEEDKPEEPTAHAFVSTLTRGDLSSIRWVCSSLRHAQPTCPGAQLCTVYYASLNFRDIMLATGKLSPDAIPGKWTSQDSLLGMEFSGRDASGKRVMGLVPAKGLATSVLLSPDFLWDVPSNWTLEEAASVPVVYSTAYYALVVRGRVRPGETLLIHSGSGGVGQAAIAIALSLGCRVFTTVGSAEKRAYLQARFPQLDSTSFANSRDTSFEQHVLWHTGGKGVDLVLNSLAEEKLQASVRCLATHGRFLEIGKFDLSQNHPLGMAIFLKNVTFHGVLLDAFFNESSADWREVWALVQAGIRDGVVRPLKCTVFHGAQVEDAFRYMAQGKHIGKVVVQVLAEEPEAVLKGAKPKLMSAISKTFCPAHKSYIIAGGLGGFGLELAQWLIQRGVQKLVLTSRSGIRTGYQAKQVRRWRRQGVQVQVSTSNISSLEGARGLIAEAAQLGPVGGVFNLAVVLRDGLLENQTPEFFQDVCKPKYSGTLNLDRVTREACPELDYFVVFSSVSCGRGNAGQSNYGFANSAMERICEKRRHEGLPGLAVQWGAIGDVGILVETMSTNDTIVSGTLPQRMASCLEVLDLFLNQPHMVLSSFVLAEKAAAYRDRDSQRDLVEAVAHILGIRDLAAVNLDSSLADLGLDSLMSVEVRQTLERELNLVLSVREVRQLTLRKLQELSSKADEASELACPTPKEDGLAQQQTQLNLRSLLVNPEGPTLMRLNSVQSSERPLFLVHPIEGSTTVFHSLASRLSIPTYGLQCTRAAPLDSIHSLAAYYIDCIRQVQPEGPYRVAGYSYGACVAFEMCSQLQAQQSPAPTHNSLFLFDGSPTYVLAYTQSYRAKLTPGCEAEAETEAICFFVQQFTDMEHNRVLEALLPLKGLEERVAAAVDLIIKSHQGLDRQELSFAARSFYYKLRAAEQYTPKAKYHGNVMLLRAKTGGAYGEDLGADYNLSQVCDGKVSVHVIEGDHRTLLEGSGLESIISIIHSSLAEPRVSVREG
ASSAY_DETAILS: FAS thioesterase domain inhibitors, dose response, biochemical, endpoint fluorescence intensity, uHTS hits (AID 624327);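 note: fluorescence from hydrolysis of an O-methyl fluorescein acyl ester substrate by the enzyme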
Format: functional
Active and inactive are the calls of the source. Cut-off read from the data, not from the text of the source: active = IC50 of 20 µM or less and inactive = more.
The reply should name one outcome from active, inactive

Use the examples below as a reference point.
COMPOUND | MEASUREMENT_TARGET | ASSIGNED_CATEGORY
O=C(COC(=O)CC1CC2CCC1C2)Nc1cc([N+](=O)[O-])ccc1F (stereo unspecified) | UniProt P49327 | active
CC1Cc2cc(-c3csc(NC(=O)Cc4cccs4)n3)ccc2N1S(C)(=O)=O (stereo unspecified) | UniProt P49327 | active
COc1ccc(NC(=O)/C(Cl)=C(/Cl)[S+]([O-])Cc2ccc(Cl)cc2)cn1 (stereo unspecified) | UniProt P49327 | active
Cc1ccc(C(=O)CN(CCC(=O)O)S(=O)(=O)c2ccc([N+](=O)[O-])cc2)cc1 | UniProt P49327 | active
O=C(CC1C[C@H](C(=O)N2CCOCC2)[C@@]2(CCC3CCCC3)c3[nH]c4ccccc4c3CCN2C1=O)NCCC1=CCCCC1 (stereo partly specified) | UniProt P49327 | inactive

Next, consider the following compound.
[Q] What outcome does the record of this test show for O=C(CCC(=O)Nc1cccc(Cl)c1)N/N=C/c1cc([N+](=O)[O-])ccc1O ?
[A] active
